Hello, the source for this data is ChEMBL document CHEMBL1201862, in case you need it.

Test system: SW-620
Assay: NCI tumour cell line growth inhibition, 48 h
The source made the active and inactive calls. Rule as the data show it: active = GI50 up to about 1.1 µM and inactive = higher.
Parameter: GI50. Scope: all listed entries.

A selection of reference data follows.
- COMPOUND: "Cc1nc2cccc(F)c2c(=O)n1C1CCCCNC1=O (configuration not stated)"
  TARGET_DESC: "SW-620"
  EXPERIMENTAL_ENDPOINT: "GI50"
  RESULT_VALUE: "> 10 µM (inactive)"
- COMPOUND: "N/C(CSCCSC/C(N)=N/O)=N\\O"
  TARGET_DESC: "SW-620"
  EXPERIMENTAL_ENDPOINT: "GI50"
  RESULT_VALUE: "> 100 µM (inactive)"
- COMPOUND: "CN(C)CCNC(=O)Cc1ccccc1Nc1c(Cl)cccc1Cl"
  TARGET_DESC: "SW-620"
  EXPERIMENTAL_ENDPOINT: "GI50"
  RESULT_VALUE: "18.2 µM (inactive)"
- COMPOUND: "C=CCN1C(=O)/C(=C/c2ccc(OC)cc2)NC1=S"
  TARGET_DESC: "SW-620"
  EXPERIMENTAL_ENDPOINT: "GI50"
  RESULT_VALUE: "> 100 µM (inactive)"
- COMPOUND: "Brc1ccc(N2C[N+](c3ccc(Br)cc3)=NC(c3ccccc3)=N2)cc1.[O-][Cl+3]([O-])([O-])[O-]"
  TARGET_DESC: "SW-620"
  EXPERIMENTAL_ENDPOINT: "GI50"
  RESULT_VALUE: "> 100 µM (inactive)"

Look at this compound and give its reported GI50. O=[N+]([O-])c1ccc(Cl)c(C2SCc3nc4ccccc4n32)c1 (configuration not stated) 35 µM (inactive)

Look at this compound and give its reported GI50. Nc1nc(N)c2ncn(Cc3ccccc3CCl)c2n1 > 100 µM (inactive)

Look at this compound and give its reported GI50. CN1CCc2c(sc3ncn(Nc4ccc(Cl)cc4)c(=N)c23)C1 > 100 µM (inactive)

Look at this compound and give its reported GI50. CC(C)(C)[Si](OC1CCOC1=O)(c1ccccc1)c1ccccc1 (configuration not stated) 26.5 µM (inactive)

Look at this compound and give its reported GI50. COC(=O)c1c(O)ccc2c1c1c(n2Cc2ccccc2)C(=O)c2ccccc2C1 74 µM (inactive)

---

System: K562
Assay: NCI tumour cell line growth inhibition, 48 h
The source made the active and inactive calls. Cut-off read from the data, not from the text of the source: active = GI50 up to about 1.1 µM and inactive = higher.
Your answer must be one of the following: active, inactive

- MOLECULE: "On1c(-c2ccccc2)c(-c2ccccc2N2CCCC2)c2ccccc21"
  TARGET_DESC: "K562"
  ANSWER_LABEL: "inactive"
- MOLECULE: "O=C(COc1ccc(Cl)c(Cl)c1)Nc1ccc[n+](Cc2ccc(S(=O)(=O)F)c(Cl)c2)c1"
  TARGET_DESC: "K562"
  ANSWER_LABEL: "inactive"
- MOLECULE: "CCCC(CC)c1c(O)c(O)c(C(CC)CCC)c(C(CC)CCC)c1C(CC)CCC (stereo not drawn)"
  TARGET_DESC: "K562"
  ANSWER_LABEL: "inactive"
- MOLECULE: "COc1cc(Br)cc2cc(C3=CSC4=NCCN34)c(=O)oc12"
  TARGET_DESC: "K562"
  ANSWER_LABEL: "inactive"
- MOLECULE: "CCOC(=O)C(=O)Nc1c(N(CC)CC)n2ccccc2nc1=O"
  TARGET_DESC: "K562"
  ANSWER_LABEL: "inactive"
- MOLECULE: "Cc1ccccc1NC(=O)C(=O)CC(=O)c1sc(Nc2ccccc2[N+](=O)[O-])nc1C"
  TARGET_DESC: "K562"
  ANSWER_LABEL: "inactive"
- MOLECULE: "O=C1NC(=S)NC(=O)C1=C/C=C/c1ccc([N+](=O)[O-])cc1"
  TARGET_DESC: "K562"
  ANSWER_LABEL: "inactive"
- MOLECULE: "CC1=CC(=O)[C@@H](O)[C@]2(C)[C@H]3[C@@]4(O)OC[C@]35[C@H]([C@@H](C)[C@H]4O)[C@@H](OC(=O)C(C)(C)CO)C(=O)O[C@@H]5C[C@@H]12"
  TARGET_DESC: "K562"
  ANSWER_LABEL: "active"

What was the test verdict on Cc1ccc(/N=N/C2S/C(=C(\C#N)c3nc4ccccc4[nH]3)N(c3ccccc3)C2=O)cc1 (stereo not drawn) ? inactive

What was the test verdict on COc1ccc(O)c(C#N)c1C#N ? inactive

What was the test verdict on CC(=O)n1c2ccc(Br)cc2c2nc3ccccc3nc21 ? inactive

What was the test verdict on C=CCN1C(=O)/C(=C/c2ccc(OC)cc2)NC1=S ? inactive

What was the test verdict on CCOP(=O)(C=C=C1CCC2[C@@H]3CCc4cc(OC)ccc4C3CC[C@]12C)OCC (stereo partly drawn) ? active

What was the test verdict on C=C1C(=O)OC2/C=C(/C)C(OC(C)=O)C/C=C(\C)C(OC(=O)C3(C)OC3C)C(O)C12 (stereo not drawn) ? inactive

---

System: SF-295
Experiment: NCI tumour cell line growth inhibition, 48 h
The source made the active and inactive calls. Rule as the data show it: active = GI50 up to about 1.1 µM and inactive = higher.
EXPERIMENTAL_ENDPOINT: GI50

A selection of reference data follows.
- COMPOUND: "CC(=O)O[C@H]1C(=O)[C@@]2(C)[C@H]([C@H](OC(=O)c3ccco3)[C@]3(O)C[C@H](OC(=O)[C@H](O)[C@@H](NC(=O)c4ccccc4)c4ccccc4)C(C)=C1C3(C)C)[C@]1(OC(C)=O)CO[C@@H]1C[C@@H]2O"
  GI50: "1.45 µM (inactive)"
- COMPOUND: "O=[N+]([O-])c1cc([N+](=O)[O-])c(C(Cl)C(Cl)c2ccccc2)cc1C(Cl)C(Cl)c1ccccc1 (stereo not drawn)"
  GI50: "2.15 µM (inactive)"

Pending compound:
Look at this compound and give its reported GI50. O=CN1CCC23CC(O)CCC2C1Cc1cc(Oc2nnnn2-c2ccccc2)cc(O)c13 (stereo not drawn) > 100 µM (inactive)

---

Parameter: GI50. Scope: all listed entries.
Test system: CCRF-CEM
Test: NCI tumour cell line growth inhibition, 48 h
The source made the active and inactive calls. Rule as the data show it: active = GI50 up to about 1.1 µM and inactive = higher.

A selection of reference data follows.
- COMPOUND: "N#Cc1ccc(/N=C(/NCC(=O)O)Nc2ccc3ccccc3c2)cc1"
  TARGET_DESC: "CCRF-CEM"
  GI50: "> 10 µM (inactive)"
- COMPOUND: "O=C1/C(=C/c2ccccc2)N=C2Sc3c([nH]cnc3=O)N12"
  TARGET_DESC: "CCRF-CEM"
  GI50: "> 100 µM (inactive)"
- COMPOUND: "O=C1OC(c2ccccc2)N/C1=C\\c1ccc2c(c1)OCO2 (stereo not given)"
  TARGET_DESC: "CCRF-CEM"
  GI50: "33.6 µM (inactive)"
- COMPOUND: "CC1CC(C)C2=NOS3=C2C1=NO3 (stereo not given)"
  TARGET_DESC: "CCRF-CEM"
  GI50: "> 100 µM (inactive)"
- COMPOUND: "CC1CC(NC2CCCCC2)=Nc2ccccc2N1Cc1ccccc1 (stereo not given)"
  TARGET_DESC: "CCRF-CEM"
  GI50: "4.13 µM (inactive)"
- COMPOUND: "O=C(CC(O)(C(F)(F)F)C(F)(F)F)c1cc(CC(=O)C(O)(C(F)(F)F)C(F)(F)F)cc(CC(=O)C(O)(C(F)(F)F)C(F)(F)F)c1"
  TARGET_DESC: "CCRF-CEM"
  GI50: "> 10 µM (inactive)"

Look at this compound and give its reported GI50. O=C1OC(c2ccc(Cl)cc2)=N/C1=C\c1ccccc1 39.5 µM (inactive)

Look at this compound and give its reported GI50. CC#CC(O)(C(=O)OC1CC(C)N(C)C(C)(C)C1)C1CCCC1 (stereo not given) > 100 µM (inactive)

Look at this compound and give its reported GI50. O=C(CC(C(=O)c1ccsc1)c1ccc2c(c1)OCO2)c1ccccc1 (stereo not given) > 100 µM (inactive)

---

Test system: SK-MEL-2
Assay: NCI tumour cell line growth inhibition, 48 h
Calls of active or inactive are those of the source. Rule as the data show it: active = GI50 up to about 1.1 µM and inactive = higher.
EXPERIMENTAL_ENDPOINT: GI50

A selection of reference data follows.
- COMPOUND: "COC(=O)c1c(O)ccc2c1c1c(n2Cc2ccccc2)C(=O)c2ccccc2C1"
  EXPERIMENTAL_ENDPOINT: "GI50"
  RESULT_VALUE: "43.6 µM (inactive)"
- COMPOUND: "Cc1cc(N)c(C)c2c1[nH]c1ccc(O)cc12"
  EXPERIMENTAL_ENDPOINT: "GI50"
  RESULT_VALUE: "> 100 µM (inactive)"
- COMPOUND: "O=C(O)c1cc2ccccc2oc1=O [COUMARIN-3-CARBOXYLIC ACID]"
  EXPERIMENTAL_ENDPOINT: "GI50"
  RESULT_VALUE: "> 100 µM (inactive)"

Given the entry COc1ccc(C2=NN(c3nsc4ccccc34)C(=O)CC2)cc1 , what GI50 was observed with SK-MEL-2? > 100 µM (inactive)

Given the entry O=C(c1cccc(F)c1F)N1CCc2c([nH]c3ccccc23)C1c1ccc2c(c1)OCO2 (stereo not drawn) , what GI50 was observed with SK-MEL-2? 4.2 µM (inactive)

Given the entry N#Cc1c(N)oc(-c2ccc([N+](=O)[O-])cc2)c1C#N , what GI50 was observed with SK-MEL-2? 24.3 µM (inactive)

Given the entry O=C(CC1(O)C(=O)Nc2ccccc21)c1ccc(F)cc1 (stereo not drawn) , what GI50 was observed with SK-MEL-2? > 100 µM (inactive)
